Value source: ChEMBL document CHEMBL5252655

biological target: SOS1-KRAS (Homo sapiens, UniProt P01116, G12D); assay: Inhibition of SOS1/KRAS G12D mutant (unknown origin) protein-protein interaction incubated for 3 hrs by HTRF analysis
Sequence (P01116 whole entry G12D, looked up): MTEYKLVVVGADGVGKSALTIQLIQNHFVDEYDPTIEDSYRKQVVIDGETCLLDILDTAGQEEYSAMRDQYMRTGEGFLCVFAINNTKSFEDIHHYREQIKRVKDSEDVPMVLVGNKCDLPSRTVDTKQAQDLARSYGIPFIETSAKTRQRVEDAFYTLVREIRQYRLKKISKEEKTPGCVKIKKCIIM
pIC50: −log10 of the molar value.
Quantity Kind: pIC50

For the molecule [2H]C([2H])(Oc1nc(N2CC3CCC2CN3)c2cnc(-c3cc(O)cc(Cl)c3C(F)(F)F)c(F)c2n1)C12CCCN1CCC2 (centres undefined) , what pIC50 is on record? ≥ 7.30

For the molecule [2H]C([2H])(Oc1nc(N2CC3CCC(C2)N3)c2cnc(-c3cc(O)cc(Cl)c3C(F)(F)F)c(F)c2n1)C12CCCN1CCC2 , what pIC50 is on record? ≥ 7.30

For the molecule [2H]C([2H])(Oc1nc2c(c(N3CC4CCC(C3)N4)n1)CCN(c1cc(O)ccc1C(F)(F)F)C2)C12CCCN1CCC2 , what pIC50 is on record? < 6.60

For the molecule [2H]C([2H])(Oc1nc2c(c(N3CC4CCC(C3)N4)n1)CCN(c1cc(O)cc(Cl)c1C(F)(F)F)C2)C12CCCN1CCC2 , what pIC50 is on record? < 7.30
